Experiment: Lipophilicity, log D of the compound
Type: physicochemical
Settings: octanol/water
ASSAY_ENDPOINT: logD

In: Tell me the measured logD of CC(C)(C)c1cc(NC(=O)NCc2ccccc2Sc2ccc3nnc(-c4ccccc4SCCO)n3c2)n(-c2ccc(O)c(Cl)c2)n1 [PF-03715455] , please.
Out: > 4.1

###

Assay: Volume of distribution at steady state in rat at 1 mg/kg, iv
Format: ADME, organism-based
Set-up: dose 1 mg/kg, route intravenous
Details: in vivo, read-out: Vdss
Vd values by entry
Write the number in L/kg without appending the unit.

CSC(C)(C)c1cc(NC(=O)NCc2ccccc2Sc2ccc3nnc(C(C)C)n3c2)n(-c2cccc(O)c2)n1 ... 0.9

Proceed to the following item.
In: Tell me the measured Vd of CC(C)(C)c1cc(NC(=O)NCc2ccccc2Sc2ccc3nnc(-c4ccccc4SCCO)n3c2)n(-c2ccc(O)c(Cl)c2)n1 , please.
Out: 0.19

###

Test: Clearance in rat at 1 mg/kg, iv
Format: ADME, organism-based
Set-up: dose 1 mg/kg, route intravenous
Conditions: in vivo
clearance values by entry
Be sure to follow the number with its unit.

CC(C)(C)c1cc(NC(=O)NCc2ccccc2Sc2ccc3nnc(-c4ccccc4SCCO)n3c2)n(-c2ccc(O)c(Cl)c2)n1 [PF-03715455] ... 33.8 mL/min/kg

In: Tell me the measured clearance of CSC(C)(C)c1cc(NC(=O)NCc2ccccc2Sc2ccc3nnc(C(C)C)n3c2)n(-c2cccc(O)c2)n1 , please.
Out: 77 mL/min/kg

###

microsomal CLint values by entry
Experiment: Metabolic stability in human liver microsomes
Format: ADME, Microsome
Conditions: read-out: Stability

Reference set (10 entries):
CSC(C)(C)c1cc(NC(=O)NCc2ccccc2Sc2ccc3nnc(C(C)C)n3c2)n(-c2ccccc2)n1 ... > 320 µL/min/mg
CC(C)c1nnc2ccc(Sc3ccccc3CNC(=O)Nc3cc(C(C)(C)C)nn3-c3ccc(Cl)c(O)c3)cn12 ... 303 µL/min/mg
CC(C)(C)c1cc(NC(=O)NCc2ccccc2Sc2ccc3nnc(-c4ccccc4SCCO)n3c2)n(-c2cccc(O)c2)n1 ... > 440 µL/min/mg
Cc1cccc(-n2nc(C(C)(C)C)cc2NC(=O)NCc2ccccc2Sc2ccc3nnc(-c4cccc(Cl)c4O)n3c2)c1 ... 126 µL/min/mg
CC(C)(C)c1cc(NC(=O)NCc2ccccc2Sc2ccc3nnc(-c4ccccc4SCCO)n3c2)n(-c2ccc(O)c(Cl)c2)n1 [PF-03715455] ... > 347 µL/min/mg
CSC(C)(C)c1cc(NC(=O)NCc2ccccc2Sc2ccc3nnc(C(C)C)n3c2)n(-c2cccc(O)c2)n1 ... > 440 µL/min/mg
CC(C)c1nnc2ccc(Sc3ccccc3CNC(=O)Nc3cc(C(C)(C)C)nn3-c3cccc(O)c3)cn12 ... 385 µL/min/mg
CSCC(C)(C)c1cc(NC(=O)NCc2ccccc2Sc2ccc3nnc(-c4cc(O)ccc4Cl)n3c2)n(-c2cccc(OCCO)c2)n1 ... > 216 µL/min/mg
Cc1ccc(-n2nc(C(C)(C)C)cc2NC(=O)NCc2ccccc2Sc2ccc3nnc(-c4cc(O)ccc4Cl)n3c2)cc1 ... > 440 µL/min/mg
CC(C)(C)c1cc(NC(=O)NCc2ccccc2Sc2ccc3nnc(-c4ccccc4O)n3c2)n(-c2cccc(OCCO)c2)n1 ... > 287 µL/min/mg

In: Tell me the measured microsomal CLint of Cc1ccc(-n2nc(C(C)(C)C)cc2NC(=O)NCc2ccccc2Sc2ccc3nnc(-c4ccc(O)cc4Cl)n3c2)cc1 , please.
Out: 132 µL/min/mg
